The molecules listed here are annotated with their pIC50.
- measured.on: Pim-1 (Homo sapiens (Human))
- Sequence (P11309 whole entry): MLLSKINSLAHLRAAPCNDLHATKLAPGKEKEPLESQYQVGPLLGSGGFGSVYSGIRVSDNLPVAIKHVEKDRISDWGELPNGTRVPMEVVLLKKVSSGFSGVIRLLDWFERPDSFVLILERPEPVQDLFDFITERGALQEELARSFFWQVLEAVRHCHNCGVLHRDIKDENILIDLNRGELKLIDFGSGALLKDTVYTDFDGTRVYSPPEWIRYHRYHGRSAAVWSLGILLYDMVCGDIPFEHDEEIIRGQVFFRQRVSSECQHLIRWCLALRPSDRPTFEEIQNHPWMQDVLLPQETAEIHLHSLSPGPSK
pIC50: −log10 of the molar value.

Log: Pim-1 (Homo sapiens (Human)), molecule CCCc1cc2nc(C(=O)Nc3cnccc3N3C[C@@H](N)[C@H](O)[C@@H](C)C3)ccc2s1 , pIC50 = ≥ 8.00

Let me check: N[C@H]1CCCN(c2ccncc2NC(=O)c2ccc3scc(C4CC4)c3n2)C1 , system Pim-1 (Homo sapiens (Human)), measured pIC50 is ≥ 8.00

====

# IC50 measurements, system: Pim-2 (Homo sapiens (Human), UniProt Q9P1W9)
# Sequence (Q9P1W9 whole entry): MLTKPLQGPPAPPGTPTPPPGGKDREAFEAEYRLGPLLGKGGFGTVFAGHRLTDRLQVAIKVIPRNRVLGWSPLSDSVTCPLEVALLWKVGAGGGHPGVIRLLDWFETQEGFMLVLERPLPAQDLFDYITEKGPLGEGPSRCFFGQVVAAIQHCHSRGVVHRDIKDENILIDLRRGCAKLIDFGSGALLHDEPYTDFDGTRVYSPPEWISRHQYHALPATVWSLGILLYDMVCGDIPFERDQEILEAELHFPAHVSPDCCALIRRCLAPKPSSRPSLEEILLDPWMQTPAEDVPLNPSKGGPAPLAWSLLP

C[C@H]1CN(c2ccncc2NC(=O)c2ccc3oc(-c4ccc(N5CCOCC5)nc4)cc3n2)C[C@@H](N)[C@@H]1O; 1000 to 10000 nM
C[C@@H]1C[C@H](N)CN(c2ccncc2NC(=O)c2ccc3sc(-c4ccccc4)cc3n2)C1; 100 to 1000 nM
CC(C)c1cc2nc(C(=O)Nc3cnccc3N3C[C@@H](N)[C@H](O)[C@@H](C)C3)ccc2o1; 100 to 1000 nM
COc1ccc(F)c(-c2csc3ccc(C(=O)Nc4cnccc4N4C[C@H](C)C[C@H](N)C4)nc23)c1F; 100 to 1000 nM
C[C@@H]1C[C@H](N)CN(c2ccncc2NC(=O)c2ccc3occ(C4CCOCC4)c3n2)C1; 100 to 1000 nM

Entry COc1ccc(-c2cc3nc(C(=O)Nc4cnccc4N4C[C@@H](N)[C@H](O)[C@@H](C)C4)ccc3s2)cn1 , tested on Pim-2 (Homo sapiens (Human), UniProt Q9P1W9), has a reported IC50 of 100 to 1000 nM

Measured IC50 (Pim-2 (Homo sapiens (Human), UniProt Q9P1W9)), entry C[C@@H]1C[C@H](N)CN(c2ccncc2NC(=O)c2ccc3cc([C@@H]4C[C@H]4C)oc3n2)C1 (racemic) : ≤ 100 nM

====

- measured.on: Pim-2 (Homo sapiens (Human), UniProt Q9P1W9)
readout.label: IC50

Worked examples follow.
CCc1cc2nc(C(=O)Nc3cnccc3N3C[C@@H](N)[C@H](O)[C@@H](C)C3)ccc2s1; ≤ 100 nM
C[C@H]1CN(c2ccncc2NC(=O)c2ccc3occ(C4CCOCC4)c3n2)C[C@@H](N)[C@@H]1O; 100 to 1000 nM
C[C@@H]1C[C@H](N)CN(c2ccncc2NC(=O)c2ccc3occ(C4=COCCC4)c3n2)C1; ≤ 100 nM
CC(C)c1csc2ccc(C(=O)Nc3cnccc3N3C[C@H](C)C[C@H](N)C3)nc12; ≤ 100 nM
CCCc1cc2nc(C(=O)Nc3cnccc3N3C[C@H](C)C[C@H](N)C3)ccc2o1; 100 to 1000 nM
C[C@H]1CN(c2ccncc2NC(=O)c2ccc3sc(-c4ccc(N5CCOCC5)nc4)cc3n2)C[C@@H](N)[C@@H]1O; 100 to 1000 nM
C[C@@H]1C[C@H](N)CN(c2ccncc2NC(=O)c2ccc3ccn(C4CCC4)c3n2)C1; 100 to 1000 nM
C[C@@H]1C[C@H](N)CN(c2ccncc2NC(=O)c2ccc3sc(C4CC4)nc3n2)C1; 100 to 1000 nM
COc1ccc(-c2cc3nc(C(=O)Nc4cnccc4N4C[C@H](C)C[C@H](N)C4)ccc3o2)cn1; > 2000 nM
C[C@H]1CN(c2ccncc2NC(=O)c2ccc3sc(-c4c(F)cccc4F)cc3n2)C[C@@H](N)[C@@H]1O; 100 to 1000 nM

C[C@H]1CN(c2ccncc2NC(=O)c2ccc3occ(-c4c(F)cccc4F)c3n2)C[C@@H](N)[C@@H]1O yielded IC50 of ≤ 100 nM

Documented IC50 of C[C@H]1CN(c2ccncc2NC(=O)c2ccc3sc(C4CC4)cc3n2)C[C@@H](N)[C@@H]1O : ≤ 100 nM

// IC50 value for COc1ccc(-c2coc3ccc(C(=O)Nc4cnccc4N4C[C@@H](N)[C@H](O)[C@@H](C)C4)nc23)cn1 : 1000 to 10000 nM

The reported value for C[C@@H]1C[C@H](N)CN(c2ccncc2NC(=O)c2ccc3scc(-c4cnn(C)c4)c3n2)C1 in terms of IC50 is > 2000 nM

Kindly note the recorded IC50 for C[C@H]1CN(c2ccncc2NC(=O)c2ccc3sc(-c4ccccc4)cc3n2)C[C@@H](N)[C@@H]1O , which is 100 to 1000 nM

====

Below are IC50 values recorded for Pim-3 (Homo sapiens (Human), UniProt Q86V86).

Here's what some known entries look like.
C[C@@H]1C[C@H](N)CN(c2ccncc2NC(=O)c2ccc3occ(-c4cnoc4)c3n2)C1; 10 to 50 nM
CC(C)c1cc2nc(C(=O)Nc3cnccc3N3C[C@@H](N)[C@H](O)[C@@H](C)C3)ccc2o1; ≤ 10 nM

Field IC50 (Pim-3 (Homo sapiens (Human), UniProt Q86V86)), entry CC(C)c1cnn2ccc(C(=O)Nc3cnccc3[C@@H]3C[C@H](C)C[C@H](N)C3)nc12 : 10 to 50 nM

Measured IC50 (Pim-3 (Homo sapiens (Human), UniProt Q86V86)), entry COc1cc(F)c(-c2cc3nc(C(=O)Nc4cnccc4N4C[C@@H](N)[C@H](O)[C@@H](C)C4)ccc3s2)c(F)c1 : ≤ 10 nM

Tested on Pim-3 (Homo sapiens (Human), UniProt Q86V86), the item C[C@H]1CN(c2ccncc2NC(=O)c2ccc3sc(-c4ccccc4F)cc3n2)C[C@@H](N)[C@@H]1O showed IC50 equal to ≤ 10 nM

Reported Pim-3 (Homo sapiens (Human), UniProt Q86V86) IC50 for item C[C@H]1CN(c2ccncc2NC(=O)c2ccc3sc(C4CC4)cc3n2)C[C@@H](N)[C@@H]1O was ≤ 10 nM

Measured IC50 for this entry COc1ccc(F)c(-c2coc3ccc(C(=O)Nc4cnccc4N4C[C@@H](N)[C@H](O)[C@@H](C)C4)nc23)c1F on Pim-3 (Homo sapiens (Human), UniProt Q86V86): ≤ 10 nM

The value of IC50 recorded for C[C@@H]1C[C@H](N)C[C@H](c2ccncc2NC(=O)c2ccn3ncc(-c4c(F)cc(CO)cc4F)c3n2)C1 when tested on Pim-3 (Homo sapiens (Human), UniProt Q86V86) reads ≤ 10 nM

Simply: C[C@H]1CN(c2ccncc2NC(=O)c2ccc3cc([C@@H]4C[C@H]4c4ccccc4)oc3n2)C[C@@H](N)[C@@H]1O , Pim-3 (Homo sapiens (Human), UniProt Q86V86), IC50 = ≤ 10 nM

Here CCCc1cc2nc(C(=O)Nc3cnccc3N3C[C@H](C)C[C@H](N)C3)ccc2o1 was tested on Pim-3 (Homo sapiens (Human), UniProt Q86V86), and its IC50 came to ≤ 10 nM

Entry C[C@H]1CN(c2ccncc2NC(=O)c2ccc3cc([C@H]4C[C@@H]4c4ccccc4)oc3n2)C[C@@H](N)[C@@H]1O ; assay system Pim-3 (Homo sapiens (Human), UniProt Q86V86); IC50 recorded at ≤ 10 nM

The reported Pim-3 (Homo sapiens (Human), UniProt Q86V86) IC50 of C[C@@H]1C[C@H](N)CN(c2ccncc2NC(=O)c2ccc3scc(-c4cnn(C)c4)c3n2)C1 is > 40 nM

Entry CCc1coc2ccc(C(=O)Nc3cnccc3N3C[C@H](C)C[C@H](N)C3)nc12 , Pim-3 (Homo sapiens (Human), UniProt Q86V86) data, IC50 value: ≤ 10 nM

====

- measured.on: Pim-2 (Homo sapiens (Human))
pIC50: −log10 of the molar value.
readout.label: pIC50

See these solved cases before continuing.
C[C@@H]1C[C@H](N)CN(c2ccncc2NC(=O)c2ccc3sc(-c4ccc(N5CCOCC5)nc4)cc3n2)C1; 6.00 to 7.00
COc1cc(F)c(-c2cc3nc(C(=O)Nc4cnccc4N4C[C@H](C)C[C@H](N)C4)ccc3s2)c(F)c1; 6.00 to 7.00
C[C@@H]1C[C@H](N)CN(c2ccncc2NC(=O)c2ccc3scc(C4CC4)c3n2)C1; ≥ 7.00

Assay Pim-2 (Homo sapiens (Human)), sample C[C@@H]1C[C@H](N)CN(c2ccncc2NC(=O)c2ccc3sc(Cc4ccccc4)cc3n2)C1 , pIC50 read: 6.00 to 7.00

Per the reported Pim-2 (Homo sapiens (Human)) data, C[C@H]1CN(c2ccncc2NC(=O)c2ccc3ccn(C4CCC4)c3n2)C[C@@H](N)[C@@H]1O has pIC50 of 5.00 to 6.00

Bench note, Pim-2 (Homo sapiens (Human)): CCCc1cc2nc(C(=O)Nc3cnccc3N3C[C@H](C)C[C@H](N)C3)ccc2s1 , pIC50 reads ≥ 7.00

====

Entries annotated with measured pIC50
- measured.on: UniProt Q9P1W9
pIC50: −log10 of the molar value.

Observe how each entry below is paired with its result.
CC(C)c1coc2ccc(C(=O)Nc3cnccc3N3C[C@H](C)C[C@H](N)C3)nc12; ≥ 7.00
C[C@@H]1C[C@H](N)CN(c2ccncc2NC(=O)c2ccc3sc(-c4ccccc4F)cc3n2)C1; 6.00 to 7.00
CC(C)c1coc2ccc(C(=O)Nc3cnccc3N3C[C@@H](N)[C@H](O)[C@@H](C)C3)nc12; ≥ 7.00
C[C@@H]1C[C@H](N)CN(c2ccncc2NC(=O)c2ccc3oc(-c4ccc(N5CCOCC5)nc4)cc3n2)C1; 5.00 to 6.00
COc1ccc(F)c(-c2coc3ccc(C(=O)Nc4cnccc4N4C[C@@H](N)[C@H](O)[C@@H](C)C4)nc23)c1F; 6.00 to 7.00
COc1cc(F)c(-c2cnn3ccc(C(=O)Nc4cnccc4[C@@H]4C[C@H](C)C[C@H](N)C4)nc23)c(F)c1; ≥ 7.00
N[C@H]1CCCN(c2ccncc2NC(=O)c2ccc3scc(C4CC4)c3n2)C1; 6.00 to 7.00
C[C@@H]1C[C@H](N)CN(c2ccncc2NC(=O)c2ccc3occ(C4CCN(C)CC4)c3n2)C1; < 5.70
CC(C)c1coc2ccc(C(=O)Nc3cnccc3N3CCC[C@H](N)C3)nc12; ≥ 7.00
Cc1cc2nc(C(=O)Nc3cnccc3N3C[C@H](C)C[C@H](N)C3)ccc2s1; 6.00 to 7.00

// assay UniProt Q9P1W9, entry COc1ccc(-c2cc3nc(C(=O)Nc4cnccc4N4C[C@@H](N)[C@H](O)[C@@H](C)C4)ccc3o2)cn1 , pIC50 value = < 5.70

Per the reported UniProt Q9P1W9 data, C[C@@H]1C[C@H](N)CN(c2ccncc2NC(=O)c2ccc3occ(-c4cnn(C)c4)c3n2)C1 has pIC50 of 5.00 to 6.00

The reported UniProt Q9P1W9 pIC50 of C[C@H]1CN(c2ccncc2NC(=O)c2ccc3occ(C4CCN(C)CC4)c3n2)C[C@@H](N)[C@@H]1O is < 5.70

The compound CC(C)c1cc2nc(C(=O)Nc3cnccc3N3C[C@H](C)C[C@H](N)C3)ccc2o1 on UniProt Q9P1W9: pIC50 was 6.00 to 7.00

Item C[C@H]1CN(c2ccncc2NC(=O)c2ccc3sc(-c4cnn(C)c4)cc3n2)C[C@@H](N)[C@@H]1O ; assay system UniProt Q9P1W9; pIC50 reported as ≥ 7.00
